Origin of values: the supplement of paper PMC3334620

# ASSAY_TARGET: Stb5 (UniProt P38699)
# Sequence: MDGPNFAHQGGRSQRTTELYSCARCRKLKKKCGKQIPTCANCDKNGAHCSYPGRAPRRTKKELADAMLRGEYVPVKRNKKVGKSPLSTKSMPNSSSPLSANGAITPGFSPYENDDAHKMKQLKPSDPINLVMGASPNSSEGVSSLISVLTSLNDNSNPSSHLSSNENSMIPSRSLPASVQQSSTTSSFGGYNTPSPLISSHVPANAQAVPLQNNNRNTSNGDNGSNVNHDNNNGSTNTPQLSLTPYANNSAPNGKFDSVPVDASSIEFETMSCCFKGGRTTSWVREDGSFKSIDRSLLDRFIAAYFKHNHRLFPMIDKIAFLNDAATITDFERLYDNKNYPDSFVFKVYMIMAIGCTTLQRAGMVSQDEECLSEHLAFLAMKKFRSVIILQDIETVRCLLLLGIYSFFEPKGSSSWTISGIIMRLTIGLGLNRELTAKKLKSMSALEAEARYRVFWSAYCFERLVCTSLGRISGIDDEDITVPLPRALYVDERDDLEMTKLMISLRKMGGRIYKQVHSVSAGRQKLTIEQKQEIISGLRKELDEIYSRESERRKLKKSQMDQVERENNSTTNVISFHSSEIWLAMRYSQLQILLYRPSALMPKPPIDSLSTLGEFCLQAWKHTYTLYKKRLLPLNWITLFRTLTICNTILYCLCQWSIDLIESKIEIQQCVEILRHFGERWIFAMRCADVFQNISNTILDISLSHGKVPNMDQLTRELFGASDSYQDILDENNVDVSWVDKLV
# METHOD_SUMMARY: PBM E-score (8-mer binding enrichment) (E-score (-0.5 to 0.5)); higher = stronger / more preferred TF binding
# CONDITION_PARAMETERS: protein concentration: 200 nM; construct: GST-full length
Whole data set: some 33,000 sequences, median “E-score (-0.5 to 0.5)” near -0.054, cut for the highest 2% near 0.35. Only a selection was taken, and the highest values are over-represented in it overall.
Binary call on PBM E-score: t from 0.3 upward, f beneath that.

chain_sequence=CATCGACG assay_target="Stb5 (UniProt P38699)" group_label=f
chain_sequence=GTCGGAGA assay_target="Stb5 (UniProt P38699)" group_label=t
chain_sequence=AAACGGAT assay_target="Stb5 (UniProt P38699)" group_label=f
chain_sequence=TAGACCAA assay_target="Stb5 (UniProt P38699)" group_label=f
chain_sequence=TGTATTAA assay_target="Stb5 (UniProt P38699)" group_label=f
chain_sequence=CAAAGCCC assay_target="Stb5 (UniProt P38699)" group_label=f
chain_sequence=AGGTATCC assay_target="Stb5 (UniProt P38699)" group_label=f
chain_sequence=GTGGGTTA assay_target="Stb5 (UniProt P38699)" group_label=f
chain_sequence=GGCGGAGA assay_target="Stb5 (UniProt P38699)" group_label=t
chain_sequence=ACTCCGCT assay_target="Stb5 (UniProt P38699)" group_label=t
chain_sequence=CAATTCGC assay_target="Stb5 (UniProt P38699)" group_label=f
chain_sequence=ACTCTTTG assay_target="Stb5 (UniProt P38699)" group_label=f
chain_sequence=ATGGCTTA assay_target="Stb5 (UniProt P38699)" group_label=f
chain_sequence=CACAAGCG assay_target="Stb5 (UniProt P38699)" group_label=f
chain_sequence=TCCCCGAA assay_target="Stb5 (UniProt P38699)" group_label=f
chain_sequence=GGTATTAA assay_target="Stb5 (UniProt P38699)" group_label=t
chain_sequence=ACCCCGAA assay_target="Stb5 (UniProt P38699)" group_label=t
chain_sequence=AGAAGCCT assay_target="Stb5 (UniProt P38699)" group_label=f
chain_sequence=ACTCCGAT assay_target="Stb5 (UniProt P38699)" group_label=t
chain_sequence=CGGTCGGC assay_target="Stb5 (UniProt P38699)" group_label=t
chain_sequence=CCTCCGCC assay_target="Stb5 (UniProt P38699)" group_label=f
chain_sequence=ACTCCGCA assay_target="Stb5 (UniProt P38699)" group_label=f
chain_sequence=AATCGCGT assay_target="Stb5 (UniProt P38699)" group_label=f
chain_sequence=GTGCACCA assay_target="Stb5 (UniProt P38699)" group_label=f
chain_sequence=CCGTCGGC assay_target="Stb5 (UniProt P38699)" group_label=t
chain_sequence=ACGTCGGA assay_target="Stb5 (UniProt P38699)" group_label=f
chain_sequence=GCCATTAA assay_target="Stb5 (UniProt P38699)" group_label=f
chain_sequence=GCTCCGCC assay_target="Stb5 (UniProt P38699)" group_label=t
chain_sequence=CAACATTA assay_target="Stb5 (UniProt P38699)" group_label=f
chain_sequence=ATCGGAGA assay_target="Stb5 (UniProt P38699)" group_label=t
chain_sequence=ACGTCGGC assay_target="Stb5 (UniProt P38699)" group_label=f
chain_sequence=GCCCCGAA assay_target="Stb5 (UniProt P38699)" group_label=f
chain_sequence=CGCGGGAA assay_target="Stb5 (UniProt P38699)" group_label=f
chain_sequence=CCCCCGAA assay_target="Stb5 (UniProt P38699)" group_label=f
chain_sequence=CCCCCGAC assay_target="Stb5 (UniProt P38699)" group_label=t
chain_sequence=ACGCTTAG assay_target="Stb5 (UniProt P38699)" group_label=f
chain_sequence=CGCTCTAC assay_target="Stb5 (UniProt P38699)" group_label=f
chain_sequence=CGTATTAC assay_target="Stb5 (UniProt P38699)" group_label=f
chain_sequence=AATCCGCG assay_target="Stb5 (UniProt P38699)" group_label=f
chain_sequence=AGAGCAGA assay_target="Stb5 (UniProt P38699)" group_label=f
chain_sequence=AATCTTGG assay_target="Stb5 (UniProt P38699)" group_label=f
chain_sequence=AACCCGAC assay_target="Stb5 (UniProt P38699)" group_label=t

----------
# ASSAY_TARGET: Stb5 (UniProt P38699)
# Sequence: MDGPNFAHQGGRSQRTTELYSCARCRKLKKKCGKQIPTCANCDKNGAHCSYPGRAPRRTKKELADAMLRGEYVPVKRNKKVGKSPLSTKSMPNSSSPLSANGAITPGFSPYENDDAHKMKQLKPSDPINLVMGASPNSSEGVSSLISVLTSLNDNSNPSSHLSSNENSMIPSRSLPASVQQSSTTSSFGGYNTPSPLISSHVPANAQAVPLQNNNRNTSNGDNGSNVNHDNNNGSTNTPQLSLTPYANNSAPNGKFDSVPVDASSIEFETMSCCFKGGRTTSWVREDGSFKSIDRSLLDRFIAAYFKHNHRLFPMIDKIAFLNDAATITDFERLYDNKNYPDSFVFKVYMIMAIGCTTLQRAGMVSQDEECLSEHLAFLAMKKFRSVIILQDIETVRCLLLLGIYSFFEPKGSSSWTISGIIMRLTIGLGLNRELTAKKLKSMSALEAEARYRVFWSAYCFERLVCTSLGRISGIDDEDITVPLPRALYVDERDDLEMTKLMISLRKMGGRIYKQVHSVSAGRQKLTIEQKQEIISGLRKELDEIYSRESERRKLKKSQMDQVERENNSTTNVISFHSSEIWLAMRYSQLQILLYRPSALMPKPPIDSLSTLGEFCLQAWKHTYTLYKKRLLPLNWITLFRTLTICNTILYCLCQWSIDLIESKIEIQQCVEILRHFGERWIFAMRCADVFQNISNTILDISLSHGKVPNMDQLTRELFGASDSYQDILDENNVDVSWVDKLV
# METHOD_SUMMARY: PBM E-score (8-mer binding enrichment) (E-score (-0.5 to 0.5)); higher = stronger / more preferred TF binding
# CONDITION_PARAMETERS: protein concentration: 200 nM; construct: GST-full length
Whole data set: some 33,000 sequences, median “E-score (-0.5 to 0.5)” near -0.054, cut for the highest 2% near 0.35. Only a selection was taken, and the highest values are over-represented in it overall.
Binary call on PBM E-score: MET from 0.2 upward, NOT MET beneath that.

chain_sequence=ACGGGGCC group_label=MET
chain_sequence=ACGCCGCT group_label=MET
chain_sequence=AAGCCGTC group_label=MET
chain_sequence=ACGGGCCT group_label=MET
chain_sequence=ACGCCGTG group_label=MET
chain_sequence=ACGGGGCA group_label="NOT MET"
chain_sequence=ACGCCTCT group_label="NOT MET"
chain_sequence=CAGCCGCC group_label="NOT MET"

----------
# ASSAY_TARGET: Stb5 (UniProt P38699)
# Sequence: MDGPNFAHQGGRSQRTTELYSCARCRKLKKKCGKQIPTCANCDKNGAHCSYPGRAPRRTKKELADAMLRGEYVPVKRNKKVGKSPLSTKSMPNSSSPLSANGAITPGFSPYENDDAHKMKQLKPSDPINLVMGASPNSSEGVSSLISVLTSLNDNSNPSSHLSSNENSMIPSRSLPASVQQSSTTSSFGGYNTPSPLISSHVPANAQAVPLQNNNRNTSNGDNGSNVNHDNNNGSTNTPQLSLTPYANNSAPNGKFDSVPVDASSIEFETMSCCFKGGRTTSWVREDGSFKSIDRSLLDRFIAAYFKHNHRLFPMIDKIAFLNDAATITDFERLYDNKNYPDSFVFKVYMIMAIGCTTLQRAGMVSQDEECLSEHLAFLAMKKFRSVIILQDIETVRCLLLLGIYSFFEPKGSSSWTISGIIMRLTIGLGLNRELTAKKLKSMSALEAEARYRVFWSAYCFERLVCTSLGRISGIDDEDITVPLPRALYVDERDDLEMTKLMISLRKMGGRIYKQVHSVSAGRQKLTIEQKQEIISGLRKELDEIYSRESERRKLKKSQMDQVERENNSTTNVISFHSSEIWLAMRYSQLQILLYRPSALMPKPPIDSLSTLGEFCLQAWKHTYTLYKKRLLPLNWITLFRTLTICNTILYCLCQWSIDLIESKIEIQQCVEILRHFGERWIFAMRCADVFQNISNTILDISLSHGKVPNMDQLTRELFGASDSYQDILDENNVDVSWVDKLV
# METHOD_SUMMARY: PBM E-score (8-mer binding enrichment) (E-score (-0.5 to 0.5)); higher = stronger / more preferred TF binding
# CONDITION_PARAMETERS: protein concentration: 200 nM; construct: GST-full length
Over roughly 33,000 sequences, “E-score (-0.5 to 0.5)” has its median near -0.054; the highest 2% begin near 0.35. The sample holds the highest values, similar sequences and a random draw of the others, so the mix is not that of the screen.
Documented PBM E-score across a set of sequences
QUANTITY_MEASURED: PBM E-score

chain_sequence=AAGACCGG quantity_measured="PBM E-score" val=0.418
chain_sequence=CGGTTTAA quantity_measured="PBM E-score" val=0.155
chain_sequence=AAGACCGT quantity_measured="PBM E-score" val=0.382
chain_sequence=GAGACCGA quantity_measured="PBM E-score" val=0.257
chain_sequence=CAACCCGG quantity_measured="PBM E-score" val=0.0495
chain_sequence=AAACCCGT quantity_measured="PBM E-score" val=0.318
chain_sequence=GGCGAGTA quantity_measured="PBM E-score" val=-0.101
chain_sequence=AAGACCAG quantity_measured="PBM E-score" val=-0.107
chain_sequence=AGACCCGA quantity_measured="PBM E-score" val=0.287
chain_sequence=CGGTTTTA quantity_measured="PBM E-score" val=0.41
chain_sequence=CAACCCGC quantity_measured="PBM E-score" val=0.169
chain_sequence=AGGTTTTA quantity_measured="PBM E-score" val=0.0721
chain_sequence=AAACCCGG quantity_measured="PBM E-score" val=0.395
chain_sequence=AAGACCTT quantity_measured="PBM E-score" val=-0.073
chain_sequence=AAGACCGC quantity_measured="PBM E-score" val=0.443
chain_sequence=CGGTTCTA quantity_measured="PBM E-score" val=0.36
chain_sequence=ATAGAAGA quantity_measured="PBM E-score" val=-0.05
chain_sequence=CAGACCGC quantity_measured="PBM E-score" val=0.272
chain_sequence=AGACCCGC quantity_measured="PBM E-score" val=0.36
chain_sequence=CAGACCGA quantity_measured="PBM E-score" val=0.174
chain_sequence=AGGTTCTA quantity_measured="PBM E-score" val=0.0114
chain_sequence=GGGTTCTA quantity_measured="PBM E-score" val=0.162
